Data provenance: PubChem BioAssay AID1159580

method notes: chemical genetic growth profiling, strain panel (AID 1159580);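 further: tested at 20 µM; growth read once vehicle control cultures reached saturation at 30 °C; lower values mean less growth of the strain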
condition info: S. cerevisiae deletion strains, growth OD, locus YJL095W, strain BCK1 (second series)
Hit rate of the full screen: of about 5,500 compounds, about 2,000 (36%) were called active. Another 18% or so got no clear call; they are omitted. No stated cut-off is given here; in the data, active means normalized growth mostly below about 0.91 (no sharp cut-off); inconclusive means no clear call, values can overlap the other calls; inactive means mostly above about 0.92. The list shows a part of the results.
Pick from T = active, F = inactive when you respond.

## Task # outcome recorded in this test, key = CC(=O)Oc1c(C)c(C)c2c(c1C)CCC(C)(CCCC(C)CCCC(C)CCCC(C)C)O2 (stereo not given)
## Result F

## Task # outcome recorded in this test, key = O=C(/C=C/c1ccc(O)cc1)c1ccc(O)cc1O
## Result F

## Task # outcome recorded in this test, key = CC1(C)CC23C(=O)CCC(O)C2(C)CCC13 (stereo not given)
## Result F

## Task # outcome recorded in this test, key = Cn1c(=O)c2c(ncn2C)n(C)c1=O
## Result F

## Task # outcome recorded in this test, key = NC(Cc1ccc(Cl)cc1)C(=O)O (stereo not given)
## Result F

## Task # outcome recorded in this test, key = O=C1NS(=O)(=O)c2ccccc21
## Result F

## Task # outcome recorded in this test, key = COc1cc(O)c2c(c1)C(=O)c1cc(C)cc(O)c1C2=O
## Result F

## Task # outcome recorded in this test, key = Cn1c(=O)[nH]c2nc[nH]c2c1=O
## Result F

## Task # outcome recorded in this test, key = CC(=O)NS(=O)(=O)c1ccc(N)cc1
## Result F

## Task # outcome recorded in this test, key = CC(=O)OC1CCC23CC1(C)CCC2C(C)(C)CC3OC(C)=O (stereo not given)
## Result F

## Task # outcome recorded in this test, key = COc1cc(Cc2cnc(N)nc2N)cc(OC)c1OC
## Result F

## Task # outcome recorded in this test, key = CCC[C@@H]1C[C@@H](C(=O)N[C@H]([C@H]2O[C@H](SC)[C@H](O)[C@@H](O)[C@H]2O)[C@H](C)O)N(C)C1
## Result F

## Task # outcome recorded in this test, key = O=C(O)CCC(=O)OC[C@@H](NC(=O)C(Cl)Cl)[C@H](O)c1ccc([N+](=O)[O-])cc1
## Result F

## Task # outcome recorded in this test, key = COC1=CC23CCCN2CCc2cc4c(cc2C3C1O)OCO4 (stereo not given)
## Result F

## Task # outcome recorded in this test, key = CNC(C)(C)Cc1ccccc1
## Result F

## Task # outcome recorded in this test, key = O=C(O)C1=C(CSc2nnnn2CS(=O)(=O)O)CS[C@@H]2C(NC(=O)[C@H](O)c3ccccc3)C(=O)N12 (stereo not given in full)
## Result F

## Task # outcome recorded in this test, key = CC(=O)OC[C@@]1(O)C[C@@]23CCC4c5ccoc5CC[C@]4(C)C2CC[C@@H]1C3 (stereo not given in full)
## Result F

## Task # outcome recorded in this test, key = CC(=O)c1c(O)cc(O)cc1O
## Result F

## Task # outcome recorded in this test, key = O=C(O)c1cc(=O)c2ccccc2[nH]1
## Result F

## Task # outcome recorded in this test, key = Cc1cc(O)c2c(c1)C(=O)c1cccc(O)c1C2=O
## Result F

## Task # outcome recorded in this test, key = COc1cc(OC)c2c(OC)c(-c3ccc4c(c3)OCO4)c(=O)oc2c1
## Result F

## Task # outcome recorded in this test, key = CC(=O)O[C@H]1CC2CCC3C(CC[C@@]4(C)C3C[C@H]([N+]3(C)CCCCC3)[C@@H]4OC(C)=O)[C@@]2(C)C[C@@H]1N1CCCCC1 (stereo not given in full)
## Result F

## Task # outcome recorded in this test, key = NS(=O)(=O)c1cc2c(cc1Cl)NCNS2(=O)=O
## Result F

## Task # outcome recorded in this test, key = Cn1c(=O)c2c(ncn2CCO)n(C)c1=O
## Result F

## Task # outcome recorded in this test, key = O=C1C=CC(=O)c2ccccc21
## Result T
